- System Under Test: PRMT5/MEP50 complex (Homo sapiens (Human))
- Experiment Notes: PRMT5:MEP50 HotSpot Assay (full-length histone H2A substrate, plus and minus MTA)
- Type: biochemical
- Conditions: IC50 + 2 μM MTA, in the presence of 2 μM MTA
- Procedure: The PRMT5 inhibitory activity of compounds of the present invention was determined using either a PRMT5:MEP50 FlashPlate Assay (Reaction Biology Corporation) or a PRMT5:MEP50 HotSpot Assay (Reaction Biology Corporation). The assay uses recombinant full-length histone H2A as the PRMT5 substrate. […] The reaction was stopped and transferred to filter paper for detection. The amount of tritiated H2A in each sample was determined using a scintillation counter.
IC50 vs 600 nM: less than gives class 1; not less than gives class 0.

### Prompt Answer whether the compound Cn1ncc(-c2ccc3c(=O)[nH]nc(CN)c3c2)c1-c1cc(Cl)cc(OC2CC2)c1C#N has IC50 strictly less than 600 nM
### Response class 1

### Prompt Answer whether the compound Cn1ncc(-c2ccc3c(=O)[nH]nc(CN)c3c2)c1-c1cc(Cl)c2ccccc2c1C#N has IC50 strictly less than 600 nM
### Response class 1

### Prompt Answer whether the compound Cn1ncc(-c2ccc3c(=O)[nH]nc(CN)c3c2)c1CC(C#N)c1ccccc1 (stereo not drawn) has IC50 strictly less than 600 nM
### Response class 0

### Prompt Answer whether the compound CC(C)Oc1ccn2ncc(-c3ccc4c(=O)[nH]nc(CN)c4c3)c2c1 has IC50 strictly less than 600 nM
### Response class 1

### Prompt Answer whether the compound Cn1ncc(-c2ccc3c(=O)[nH]nc(CN)c3c2)c1-c1ccccc1C(F)F has IC50 strictly less than 600 nM
### Response class 0

### Prompt Answer whether the compound CCOc1cccc(-c2c(-c3ccc4c(=O)[nH]nc(CN)c4c3)cnn2C)c1C#N has IC50 strictly less than 600 nM
### Response class 1

### Prompt Answer whether the compound COc1cccc(-c2c(-c3ccc4c(=O)[nH]nc(CN)c4c3)cnn2C)c1C#N has IC50 strictly less than 600 nM
### Response class 0

### Prompt Answer whether the compound COc1ccc(C#N)c(-c2c(-c3ccc4c(=O)[nH]nc(CN)c4c3)cnn2C)c1 has IC50 strictly less than 600 nM
### Response class 0

### Prompt Answer whether the compound Cc1ccc(Oc2cncc(-c3ccc4c(=O)[nH]nc(CN)c4c3)c2)c(C)c1 has IC50 strictly less than 600 nM
### Response class 0

* * *

- System Under Test: PRMT5/MEP50 complex (Homo sapiens (Human), UniProt O14744)
- Sequence (O14744 2-637): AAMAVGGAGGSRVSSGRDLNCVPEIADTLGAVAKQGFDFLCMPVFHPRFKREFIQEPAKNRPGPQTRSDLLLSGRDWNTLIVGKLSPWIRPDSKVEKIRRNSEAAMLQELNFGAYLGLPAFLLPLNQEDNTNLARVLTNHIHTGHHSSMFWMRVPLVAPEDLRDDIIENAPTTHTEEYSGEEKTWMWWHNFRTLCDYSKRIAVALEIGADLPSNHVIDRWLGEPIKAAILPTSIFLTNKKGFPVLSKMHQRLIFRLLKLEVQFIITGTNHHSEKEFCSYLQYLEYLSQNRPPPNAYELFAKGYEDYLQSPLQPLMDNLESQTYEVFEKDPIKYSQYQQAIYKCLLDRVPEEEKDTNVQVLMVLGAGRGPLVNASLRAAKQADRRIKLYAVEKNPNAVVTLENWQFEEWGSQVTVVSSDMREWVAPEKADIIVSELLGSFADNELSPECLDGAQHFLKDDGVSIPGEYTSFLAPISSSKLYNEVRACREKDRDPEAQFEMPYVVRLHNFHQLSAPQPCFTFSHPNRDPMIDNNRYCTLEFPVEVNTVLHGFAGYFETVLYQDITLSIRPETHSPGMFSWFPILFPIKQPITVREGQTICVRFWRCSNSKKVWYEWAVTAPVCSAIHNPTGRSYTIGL
- Sequence (Q9BQA1 2-342 partner): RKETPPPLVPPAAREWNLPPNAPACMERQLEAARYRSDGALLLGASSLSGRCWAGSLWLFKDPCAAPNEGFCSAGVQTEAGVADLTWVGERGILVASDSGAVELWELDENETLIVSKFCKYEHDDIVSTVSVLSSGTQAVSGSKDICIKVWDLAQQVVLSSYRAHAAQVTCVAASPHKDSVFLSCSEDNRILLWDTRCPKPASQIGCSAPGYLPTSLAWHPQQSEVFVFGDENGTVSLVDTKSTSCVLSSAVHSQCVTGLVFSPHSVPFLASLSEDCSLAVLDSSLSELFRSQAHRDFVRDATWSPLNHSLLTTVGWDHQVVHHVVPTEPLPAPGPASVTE
- Experiment Notes: PRMT5:MEP50 FlashPlate Assay (histone H4 peptide substrate, plus and minus MTA)
- Format: biochemical
- Conditions: in the absence of MTA, read-out: IC50
Value Type: IC50 (µM)
Express the result in µM but write the number alone.

### Prompt Item under review: Cc1cc(-c2ccc3c(=O)[nH]nc(CN)c3c2)cnc1C . Reported IC50?
### Response 38.3

### Prompt Item under review: N#Cc1ccccc1Oc1cncc(-c2ccc3c(=O)[nH]nc(CN)c3c2)c1 . Reported IC50?
### Response 0.246

### Prompt Item under review: Cc1cccc(Sc2cncc(-c3ccc4c(=O)[nH]nc(CN)c4c3)c2)c1 . Reported IC50?
### Response 0.149

* * *

- System Under Test: PRMT5/MEP50 complex (Homo sapiens (Human), UniProt O14744)
- Experiment Notes: PRMT5:MEP50 FlashPlate Assay (histone H4 peptide substrate, plus and minus MTA)
- Assay type: biochemical
- Conditions: IC50 + 2 μM MTA (nM), in the presence of 2 μM MTA
Value Type: IC50 (nM)
Express the result in nM but write the number alone.

### Prompt Item under review: CCN1CCn2ncc(-c3ccc4c(=O)[nH]nc(CN)c4c3)c2C1 . Reported IC50?
### Response 58

### Prompt Item under review: N#Cc1ccc2ncc(-c3ccc4c(=O)[nH]nc(CN)c4c3)n2c1 . Reported IC50?
### Response 260

### Prompt Item under review: Cn1ncc(-c2ccc3c(=O)[nH]nc(CN)c3c2)c1-c1ccc(Cl)cc1C#N . Reported IC50?
### Response 0.5

### Prompt Item under review: NCc1n[nH]c(=O)c2ccc(-c3cncc(Oc4ccccc4F)c3)cc12 . Reported IC50?
### Response 10

* * *

- System Under Test: PRMT5/MEP50 complex (Homo sapiens (Human), UniProt O14744)
- Experiment Notes: PRMT5:MEP50 FlashPlate Assay (histone H4 peptide substrate, plus and minus MTA)
- Type: biochemical
- Conditions: IC50 + 2 μM MTA (nM), in the presence of 2 μM MTA
Value Type: IC50 (nM)
Express the result in nM but write the number alone.

### Prompt Item under review: Cn1ncc(-c2ccc3c(=O)[nH]nc(CN)c3c2)c1-c1cccc(Cl)c1 [Example 4-92] . Reported IC50?
### Response 3.5

### Prompt Item under review: NCc1n[nH]c(=O)c2ccc(-c3cnc4cc(F)ccn34)cc12 [Example 4-29] . Reported IC50?
### Response 190

### Prompt Item under review: NCc1n[nH]c(=O)c2cc(Nc3ccccc3)ccc12 [Example 6-3] . Reported IC50?
### Response 9400

### Prompt Item under review: COc1cncc(-c2ccc3c(=O)[nH]nc(CN)c3c2)c1 [Example 3-45] . Reported IC50?
### Response 370

### Prompt Item under review: Cn1cc(-c2ccc3c(=O)[nH]nc(CN)c3c2)c2cccnc21 [Example 3-29] . Reported IC50?
### Response 10000

### Prompt Item under review: NCc1n[nH]c(=O)c2ccc(-c3cncc(Sc4ccc(Cl)cc4)c3)cc12 [Example 4-57] . Reported IC50?
### Response 11

### Prompt Item under review: COc1ccc(C#N)c(-c2c(-c3ccc4c(=O)[nH]nc(CN)c4c3)cnn2C)c1 [Example 4-104] . Reported IC50?
### Response 0.5

### Prompt Item under review: CC(C)c1c[nH]c2ncc(-c3ccc4c(=O)[nH]nc(CN)c4c3)cc12 [Example 3-61] . Reported IC50?
### Response 3.4

### Prompt Item under review: NCc1n[nH]c(=O)c2ccc(-c3cncc(CC4CC4)c3)cc12 [Example 3-35] . Reported IC50?
### Response 59

### Prompt Item under review: NCc1n[nH]c(=O)c2ccc(-c3cncc4nccn34)cc12 [Example 4-12] . Reported IC50?
### Response 7400

### Prompt Item under review: Cc1ccc(Sc2cncc(-c3ccc4c(=O)[nH]nc(CN)c4c3)c2)cc1 [Example 4-60] . Reported IC50?
### Response 2.3

### Prompt Item under review: NCc1n[nH]c(=O)c2ccc(-c3cnc4[nH]cc(CO)c4c3)cc12 [Example 4-47] . Reported IC50?
### Response 19

### Prompt Item under review: Cc1cccc(Sc2cncc(-c3ccc4c(=O)[nH]nc(CN)c4c3)c2)c1 [Example 4-61] . Reported IC50?
### Response 3

### Prompt Item under review: Cc1ncc(-c2ccc3c(=O)[nH]nc(CN)c3c2)n1C [Example 4-4] . Reported IC50?
### Response 230

### Prompt Item under review: NCc1n[nH]c(=O)c2ccc(-c3cncc(Cl)c3)cc12 [Example 3-42] . Reported IC50?
### Response 200

### Prompt Item under review: NCc1n[nH]c(=O)c2ccc(-c3cncn3Cc3ccccc3)cc12 [Example 4-108] . Reported IC50?
### Response 900

### Prompt Item under review: NCc1n[nH]c(=O)c2ccc(-c3ccnnc3)cc12 [Example 3-2] . Reported IC50?
### Response 42000

### Prompt Item under review: Cc1ccc(-c2ccc3c(=O)[nH]nc(CN)c3c2)cn1 [Example 3-5] . Reported IC50?
### Response 7400

### Prompt Item under review: CCc1cncc(-c2ccc3c(=O)[nH]nc(CN)c3c2)c1 [Example 3-13] . Reported IC50?
### Response 110

### Prompt Item under review: CS(=O)(=O)c1cncc(-c2ccc3c(=O)[nH]nc(CN)c3c2)c1 [Example 3-48] . Reported IC50?
### Response 280

### Prompt Item under review: NCc1n[nH]c(=O)c2ccc(-c3cnc4[nH]cc(Cl)c4c3)cc12 [Example 4-44] . Reported IC50?
### Response 5.4

### Prompt Item under review: Cn1cncc1-c1ccc2c(=O)[nH]nc(CN)c2c1 [Example 3-30] . Reported IC50?
### Response 7700

### Prompt Item under review: NCc1n[nH]c(=O)c2ccc(-c3cnc4ccc(OC5CC5)cn34)cc12 [Example 4-37] . Reported IC50?
### Response 1.1

* * *

- System Under Test: PRMT5/MEP50 complex (Homo sapiens (Human))
- Experiment Notes: PRMT5:MEP50 FlashPlate Assay (histone H4 peptide substrate, plus and minus MTA)
- Type: biochemical
- Conditions: IC50 + 2 μM MTA (nM), in the presence of 2 μM MTA
IC50 vs 40 nM: less than gives met; not less than gives not met.

### Prompt Answer whether the compound N#Cc1ccc(F)cc1-c1cncc(-c2ccc3c(=O)[nH]nc(CN)c3c2)c1 has IC50 strictly less than 40 nM
### Response not met

### Prompt Answer whether the compound CN1CCn2ncc(-c3ccc4c(=O)[nH]nc(CN)c4c3)c2C1 has IC50 strictly less than 40 nM
### Response not met

### Prompt Answer whether the compound Cc1cc(-c2ccc3c(=O)[nH]nc(CN)c3c2)[nH]n1 has IC50 strictly less than 40 nM
### Response not met

### Prompt Answer whether the compound NCc1n[nH]c(=O)c2ccc(-c3cnc4ccc(-c5ccccc5)cn34)cc12 has IC50 strictly less than 40 nM
### Response met

### Prompt Answer whether the compound Cc1ccc(-c2c(-c3ccc4c(=O)[nH]nc(CN)c4c3)cnn2C)cc1 has IC50 strictly less than 40 nM
### Response met

### Prompt Answer whether the compound Cc1cc(-c2ccc3c(=O)[nH]nc(CN)c3c2)cnc1C has IC50 strictly less than 40 nM
### Response not met

### Prompt Answer whether the compound NCc1n[nH]c(=O)c2ccc(-c3cnn4c3CN(Cc3ccccc3)CC4)cc12 has IC50 strictly less than 40 nM
### Response met

### Prompt Answer whether the compound CC(N)c1n[nH]c(=O)c2ccc(-c3cnn(C)c3-c3cccc(Cl)c3C#N)cc12 (single isomer, unassigned) has IC50 strictly less than 40 nM
### Response not met

### Prompt Answer whether the compound Cn1ncc(-c2ccc3c(=O)[nH]nc(CN)c3c2)c1Cl has IC50 strictly less than 40 nM
### Response not met

### Prompt Answer whether the compound Cc1ccc(Oc2cncc(-c3ccc4c(=O)[nH]nc(CN)c4c3)c2)cc1 has IC50 strictly less than 40 nM
### Response met

### Prompt Answer whether the compound NCc1n[nH]c(=O)c2ccc(-c3cnc4ccccn34)cc12 has IC50 strictly less than 40 nM
### Response met

### Prompt Answer whether the compound NCc1n[nH]c(=O)c2ccc(-c3cncc(Sc4ccccc4Cl)c3)cc12 has IC50 strictly less than 40 nM
### Response met

### Prompt Answer whether the compound NCc1n[nH]c(=O)c2ccc(-c3cncc(Sc4cccc(Cl)c4)c3)cc12 has IC50 strictly less than 40 nM
### Response met

### Prompt Answer whether the compound NCc1n[nH]c(=O)c2ccc(-c3cncc(C(F)F)c3)cc12 has IC50 strictly less than 40 nM
### Response not met
